- System: MCF-10A
- ASSAY: Cytotoxicity against human MCF10A cells after 48 hrs by MTT assay
- Format: cell-based
MEASURED_ENDPOINT: pIC50
Reminder that pIC50 is minus the log10 of a molar concentration.

In the examples that follow, each entry is paired with its recorded pIC50.
INSERT INTO measurements (molecule, measured_endpoint, observed_value) VALUES
  ('COC(=O)CNC(=O)C(CC[C@H]1O[C@@H]2O[C@@]3(C)CC[C@H]4[C@H](C)CC[C@@H]([C@H]1C)[C@@]24OO3)N(CCC[C@H]1O[C@@H]2O[C@@]3(C)CC[C@H]4[C@H](C)CC[C@@H]([C@H]1C)[C@@]24OO3)C(=O)C(F)(F)F (mixture of isomers)', 'pIC50', 5.34),
  ('COC(=O)CNC(=O)C(CC[C@H]1O[C@@H]2O[C@@]3(C)CC[C@H]4[C@H](C)CC[C@@H]([C@H]1C)[C@@]24OO3)N(CCC[C@H]1O[C@@H]2O[C@@]3(C)CC[C@H]4[C@H](C)CC[C@@H]([C@H]1C)[C@@]24OO3)c1ccc([N+](=O)[O-])cc1 (mixture of isomers)', 'pIC50', 4.33);

In: What measured pIC50 goes with COC(=O)CNC(=O)C(CC[C@H]1O[C@@H]2O[C@@]3(C)CC[C@H]4[C@H](C)CC[C@@H]([C@H]1C)[C@@]24OO3)N(CCC[C@H]1O[C@@H]2O[C@@]3(C)CC[C@H]4[C@H](C)CC[C@@H]([C@H]1C)[C@@]24OO3)C(=O)c1ccc(N(C)C)cc1 (mixture of isomers) ?
Out: 4.82

In: What measured pIC50 goes with COC(=O)CNC(=O)C(CC[C@H]1O[C@@H]2O[C@@]3(C)CC[C@H]4[C@H](C)CC[C@@H]([C@H]1C)[C@@]24OO3)N(CCC[C@H]1O[C@@H]2O[C@@]3(C)CC[C@H]4[C@H](C)CC[C@@H]([C@H]1C)[C@@]24OO3)C(=O)c1ccccc1 (mixture of isomers) ?
Out: 5.30

In: What measured pIC50 goes with COC(=O)CNC(=O)C(CC[C@H]1O[C@@H]2O[C@@]3(C)CC[C@H]4[C@H](C)CC[C@@H]([C@H]1C)[C@@]24OO3)N(CCC[C@H]1O[C@@H]2O[C@@]3(C)CC[C@H]4[C@H](C)CC[C@@H]([C@H]1C)[C@@]24OO3)C(=O)c1cnccn1 (mixture of isomers) ?
Out: 4.60

Ref: ChEMBL document CHEMBL2401614
